B1: ANKRD9 (parent)
chain: LLEDMRASEAFHWDERGRAAAYSP

# Variants of: B1
# assaySummary: protein stability index of a GFP-peptide fusion (GPS, HEK-293T) (PSI 1-6); higher = more stable;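 also: lentivirally expressed fusions sorted by FACS into six bins by GFP to DsRed ratio, PSI derived from sequencing read proportions per bin multiplied by bin number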
# protocolConditions: c terminus: a fixed tail appended
readoutName: protein stability index

>>> numericvalue("E15L")
1.5
>>> numericvalue("L2H")
4.13
>>> numericvalue("D4N")
2.5
>>> numericvalue("A21C")
2.15
>>> numericvalue("A21F")
2.55
>>> numericvalue("P24H")
2.19
>>> numericvalue("D14T")
2.57
>>> numericvalue("M5N")
4.1
>>> numericvalue("E15R")
1.58
>>> numericvalue("A7S")
1.78
>>> numericvalue("D4Q")
2.14
>>> numericvalue("E3H")
2.19
>>> numericvalue("R18C")
1.69
>>> numericvalue("W13H")
2.66
>>> numericvalue("L1I")
2.44
>>> numericvalue("A19H")
1.69
>>> numericvalue("L2G")
3.74
>>> numericvalue("A20V")
1.34
>>> numericvalue("F11T")
2.5

meta.source: the supplement of paper PMC10567573
